The reported numbers originate from ChEMBL document CHEMBL4004859.

system: Plasmodium falciparum; assay: Antimalarial activity against chloroquine-resistant Plasmodium falciparum W2 infected in red blood cells after 72 hrs by Malstat reagent based LDH assay; assay type: functional, cell-based; settings: W2, 72 h
MEASUREMENT TYPE: pIC50
Hey, just a heads up that pIC50 is the negative log base 10 of the concentration in molar.

Study these solved cases before continuing.
# SMILES STRING, TESTED ON, pIC50
rows = [
    ("Cc1cc(N(CCNc2ccnc3cc(Cl)ccc23)Cc2ccco2)nc(N2CCCCC2)n1", "Plasmodium falciparum", 6.70),
    ("Cc1cc(Cl)nc(N(CCNc2ccnc3cc(Cl)ccc23)Cc2ccco2)n1", "Plasmodium falciparum", 7.21),
    ("Cc1cc(N2CCN(C)CC2)nc(N(CCCNc2ccnc3cc(Cl)ccc23)Cc2ccco2)n1", "Plasmodium falciparum", 7.32),
    ("Cc1cc(Cl)nc(N(CCCNc2ccnc3cc(Cl)ccc23)Cc2ccco2)n1", "Plasmodium falciparum", 6.30),
]

Req: For Plasmodium falciparum, provide pIC50 of Cc1cc(N(CCCNc2ccnc3cc(Cl)ccc23)Cc2ccco2)nc(N2CCCCC2)n1 please.
Resp: 7.14

Req: For Plasmodium falciparum, provide pIC50 of Cc1cc(N(CCNc2ccnc3cc(Cl)ccc23)Cc2ccco2)nc(N2CCOCC2)n1 please.
Resp: 6.91

Req: For Plasmodium falciparum, provide pIC50 of Cc1cc(N(CCCNc2ccnc3cc(Cl)ccc23)Cc2ccco2)nc(N2CCOCC2)n1 please.
Resp: 6.59

Req: For Plasmodium falciparum, provide pIC50 of Cc1cc(N2CCCC2)nc(N(CCCNc2ccnc3cc(Cl)ccc23)Cc2ccco2)n1 please.
Resp: 6.79

Req: For Plasmodium falciparum, provide pIC50 of Cc1cc(N(CCNc2ccnc3cc(Cl)ccc23)Cc2ccco2)nc(N2CCN(C)CC2)n1 please.
Resp: 7.39

* * *

Reported selectivity ratio values for the following molecules.
assay: Selectivity index, ratio of IC50 for African green monkey Vero cells to IC50 for chloroquine-resistant Plasmodium falciparum W2 infected in red blood cells; format: toxicity, cell-based; conditions: read-out: Ratio IC50

Study these solved cases before continuing.
# SMILES STRING, REPORTED VALUE
records = [
    ("Cc1cc(N2CCOCC2)nc(N(CCCNc2ccnc3cc(Cl)ccc23)Cc2ccco2)n1", "> 59.9"),
    ("Cc1cc(Cl)nc(N(CCNc2ccnc3cc(Cl)ccc23)Cc2ccco2)n1", "> 161"),
    ("Cc1cc(N2CCCC2)nc(N(CCNc2ccnc3cc(Cl)ccc23)Cc2ccco2)n1", "> 51.5"),
    ("Cc1cc(Cl)nc(N(CCCNc2ccnc3cc(Cl)ccc23)Cc2ccco2)n1", "> 19.8"),
]

Req: So what does the record say about selectivity ratio for Cc1cc(N2CCOCC2)nc(N(CCNc2ccnc3cc(Cl)ccc23)Cc2ccco2)n1 ?
Resp: > 159

* * *

system: Plasmodium falciparum; experiment: Antimalarial activity against chloroquine-resistant Plasmodium falciparum W2 infected in red blood cells after 72 hrs by Malstat reagent based LDH assay; assay type: functional, cell-based; conditions: W2, 72 h
MEASUREMENT TYPE: pIC50
Hey, just a heads up that pIC50 is the negative log base 10 of the concentration in molar.

# SMILES STRING, pIC50
measured = [
    ("C[C@@H]1CC[C@H]2[C@@H](C)C(=O)O[C@@H]3O[C@@]4(C)CC[C@@H]1[C@]32OO4", 7.64),
    ("Cc1cc(N(CCNc2ccnc3cc(Cl)ccc23)Cc2ccco2)nc(Cl)n1", 7.12),
    ("CCN1CCN(c2cc(C)nc(N(CCCNc3ccnc4cc(Cl)ccc34)Cc3ccco3)n2)CC1", 7.41),
]

Req: So what does the record say about pIC50 for Cc1cc(N(CCCNc2ccnc3cc(Cl)ccc23)Cc2ccco2)nc(Cl)n1 ?
Resp: 6.34

Req: So what does the record say about pIC50 for Cc1cc(N2CCN(C)CC2)nc(N(CCNc2ccnc3cc(Cl)ccc23)Cc2ccco2)n1 ?
Resp: 7.38

Req: So what does the record say about pIC50 for Cc1cc(N2CCCCC2)nc(N(CCNc2ccnc3cc(Cl)ccc23)Cc2ccco2)n1 ?
Resp: 6.69
